- METHOD SUMMARY: PAMPA-BBB assay
- EXPERIMENTAL PARAMETERS: PAMPA, pH 7.4
RECORDED ENDPOINT: Papp

Guide cases for Papp, answers given:
- COMPOUND: "CCOC(=O)CN1C(=O)S/C(=C\\c2ccc3[nH]c4ccc(/C=C5\\SC(=O)N(CC(=O)OCC)C5=O)cc4c3c2)C1=O [Compound 10]"
  REPORTED VALUE: "5.79 ×10⁻⁶ cm/s"
- COMPOUND: "CN(C)CCN1C(=O)S/C(=C\\c2ccc3c(c2)C(C)(C)c2cc(/C=C4\\SC(=O)N(CCN(C)C)C4=O)ccc2-3)C1=O [Compound 23]"
  REPORTED VALUE: "18.9 ×10⁻⁶ cm/s"

What does the data say about its Papp? Entry: O=C(O)CN1C(=O)S/C(=C\c2ccc3[nH]c4ccc(/C=C5\SC(=O)N(CC(=O)O)C5=O)cc4c3c2)C1=O [Compound 16]
0.55 ×10⁻⁶ cm/s

###

- Test system: cerebellar granule neurons (CGNs)
- METHOD SUMMARY: Neurotoxicity on primary cultures of cerebellar granule neurons (nuclei counting after Hoechst staining)
- EXPERIMENTAL PARAMETERS: differentiated CGNs, 24 h, percentage of healthy nuclei on total nuclei, mean ± SEM of three experiments
RECORDED ENDPOINT: % survival neurotoxicity @ 10 μM (%)
Use % as the unit, but write only the number.

- ITEM SMILES: "O=C1NC(=O)/C(=C/c2ccc3[nH]c4ccc(/C=C5\\SC(=O)NC5=O)cc4c3c2)S1"
  % survival neurotoxicity @ 10 μM (%): 73.4
- ITEM SMILES: "CCOC(=O)CN1C(=O)S/C(=C\\c2ccc(-c3ccc(/C=C4\\SC(=O)N(CC(=O)OCC)C4=O)cc3)cc2)C1=O"
  % survival neurotoxicity @ 10 μM (%): 87.2
- ITEM SMILES: "CN(C)CCN1C(=O)S/C(=C\\c2ccc3[nH]c4ccc(/C=C5\\SC(=O)N(CCN(C)C)C5=O)cc4c3c2)C1=O"
  % survival neurotoxicity @ 10 μM (%): 94.3

What does the data say about its % survival neurotoxicity @ 10 μM? Entry: `O=C(O)CN1C(=O)S/C(=C\c2ccc(-c3ccc(/C=C4\SC(=O)N(CC(=O)O)C4=O)s3)s2)C1=O`
90.9

What does the data say about its % survival neurotoxicity @ 10 μM? Entry: `CC1(C)c2cc(/C=C3\SC(=O)N(CC(=O)O)C3=O)ccc2-c2ccc(/C=C3\SC(=O)N(CC(=O)O)C3=O)cc21`
89.3

What does the data say about its % survival neurotoxicity @ 10 μM? Entry: `CN(C)CCN1C(=O)S/C(=C\c2ccc3c(c2)C(C)(C)c2cc(/C=C4\SC(=O)N(CCN(C)C)C4=O)ccc2-3)C1=O`
87.9

###

The following compounds are shown together with reported inhibition at 10 µM values.
- TARGET: Aβ42 (Homo sapiens)
- Construct: expressed in transfected cells; host or cells: Escherichia coli BL21 (DE3), pET28a
- Sequence (P05067 672-713 limits assumed): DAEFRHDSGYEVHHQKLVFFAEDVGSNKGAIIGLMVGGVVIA
- METHOD SUMMARY: Inhibition of Aβ42 aggregation in intact E. coli cells overexpressing Aβ42 (ThS fluorescence)
- Type: cell-based, Escherichia coli
- EXPERIMENTAL PARAMETERS: read-out: % inhibition Aβ42 aggregation @ 10 μM, intact E. coli cells, compound 10 μM, mean ± SEM of four independent experiments
Use % as the unit, but write only the number.

Guide cases for inhibition at 10 µM, answers given:
- ITEM SMILES: "O=C1NC(=O)/C(=C/c2ccc(Cc3ccc(/C=C4\\SC(=O)NC4=O)cc3)cc2)S1"
  REPORTED VALUE: 12.9
- ITEM SMILES: "O=C1NC(=O)/C(=C/c2ccc(-c3ccc(/C=C4\\SC(=O)NC4=O)cc3)cc2)S1"
  REPORTED VALUE: 20.2
- ITEM SMILES: "CCOC(=O)CN1C(=O)S/C(=C\\c2ccc3c(c2)C(C)(C)c2cc(/C=C4\\SC(=O)N(CC(=O)OCC)C4=O)ccc2-3)C1=O"
  REPORTED VALUE: 17.5
- ITEM SMILES: "O=C(O)CN1C(=O)S/C(=C\\c2ccc(-c3ccc(/C=C4\\SC(=O)N(CC(=O)O)C4=O)cc3)cc2)C1=O"
  REPORTED VALUE: 35.1
- ITEM SMILES: "CCOC(=O)CN1C(=O)S/C(=C\\c2ccc(-c3ccc(/C=C4\\SC(=O)N(CC(=O)OCC)C4=O)cc3)cc2)C1=O"
  REPORTED VALUE: 14.3
- ITEM SMILES: "CCOC(=O)CN1C(=O)S/C(=C\\c2ccc(/C=C3\\SC(=O)N(CC(=O)OCC)C3=O)cc2)C1=O"
  REPORTED VALUE: 40
- ITEM SMILES: "CN(C)CCN1C(=O)S/C(=C\\c2ccc(-c3ccc(/C=C4\\SC(=O)N(CCN(C)C)C4=O)s3)s2)C1=O"
  REPORTED VALUE: 20.3
- ITEM SMILES: "CC1(C)c2cc(/C=C3\\SC(=O)NC3=O)ccc2-c2ccc(/C=C3\\SC(=O)NC3=O)cc21"
  REPORTED VALUE: 23.6

What does the data say about its inhibition at 10 µM? Entry: `O=C1NC(=O)/C(=C/c2ccc(/C=C3\SC(=O)NC3=O)cc2)S1`
25.4

What does the data say about its inhibition at 10 µM? Entry: `O=C(O)CN1C(=O)S/C(=C\c2ccc(-c3ccc(/C=C4\SC(=O)N(CC(=O)O)C4=O)s3)s2)C1=O`
65.6

What does the data say about its inhibition at 10 µM? Entry: `O=C(O)CN1C(=O)S/C(=C\c2ccc(Cc3ccc(/C=C4\SC(=O)N(CC(=O)O)C4=O)cc3)cc2)C1=O`
26.2

meta.source: paper PMC9732823
